B1: TPR t1 (parent)
chain: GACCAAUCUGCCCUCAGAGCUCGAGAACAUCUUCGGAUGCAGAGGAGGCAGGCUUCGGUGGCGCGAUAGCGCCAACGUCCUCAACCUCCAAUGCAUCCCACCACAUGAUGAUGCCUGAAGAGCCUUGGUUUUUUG

- Variants of: B1
- assay: polymerase ribozyme fitness, log enrichment relative to wild type (log ratio); higher = more active; in vitro selection for triplet polymerase activity
Would you mind classing the entries by polymerase ribozyme fitness (log ratio)? Ranges: bin A (below -2), bin B (-2 to below -1), bin C (-1 or more)

Would you please look over these solved cases?
[[record]]
ordered_residues = "GACCAAUCUGCCCUCAGAGCUCGAGAACAUCUUCGGAUGCAGAGGAGGCAGGCUUCGGUGGCGCGAUAGCGCCAACGUCCUCAACCUACAAUGCAUCCCACCAAAUGAUGAUGCCUGAAGAGCCUUGGUUUUUUG [C88A C104A]"
answer_label = "bin B"

[[record]]
ordered_residues = "GACCAAUAUGCCUUCAGAGCUCGAGAACAUAUUCGGAUGCAGAGGAGGCAGGCUUCGGUGUCGCGAUAGCGCCAACGUCCUCAACCUCCAAUGCAACCCACCACAUGAUGAUGCCUGAAGAGCGUUGGUUUUUUG [C8A C13U C31A G61U U96A C124G]"
answer_label = "bin A"


**Query** Which of the defined bands does the recorded polymerase ribozyme fitness (log ratio) of GACCAAUCUGCCCUCAGAGCUCGAGAACAUCUUCGGAUGCAGAGGAGGCAGGCUUCGGUGGCGCGAUAGCGCCAACGCCCUCAACCUCCAAUGCAUCCCACCACAUGAUGCUGCCUGAAGAGCCUUGGUUUUUUG [U78C A111C] sit within?
**Result** bin C

**Query** Which of the defined bands does the recorded polymerase ribozyme fitness (log ratio) of GACCAAUCUGCCCUCAGAGCUCGAGAACAUCUUCGGAUGCAGAGGAGGCAGGCUUCGGUGGCGCGAUAGCGCCAACGUCCUCACCCUCCAAUGCAUCCCACCACAUGAUGAUGCCUGAAGAGCUUUGGUUUUUUG [A84C C124U] sit within?
**Result** bin C

**Query** Which of the defined bands does the recorded polymerase ribozyme fitness (log ratio) of GACCAAUCUGCCCUCAGAGCUCGAGAACAUCUUCGGAUGCAGAGGAGGCAGGCUUCGCUGGCGCGAUAGCGCCAACGUCCUCAACCUCCAAUGCAUCGCACCACAUGAUGAUGCCUGAACAGUCUUGGUUUUUUG [G58C C98G G120C C123U] sit within?
**Result** bin A

**Query** Which of the defined bands does the recorded polymerase ribozyme fitness (log ratio) of GACCAAUCUGCCCUCAGAGCUCGAGAACAUCUUCGGAUGCAGAGGAGGCAGGCUUCGGUGUCGCGUUAGCGCCAACGUCCUCAACCUCCAAUGCAUCCCACCACAUGAUGAAGCCUGAAGAGCCUUGGUUUUUUG [G61U A66U U112A] sit within?
**Result** bin C

**Query** Which of the defined bands does the recorded polymerase ribozyme fitness (log ratio) of GACCAAUGUGCCCUCAGAGUUCGAGAACAUCUUCGGAUGCAGAGGAGGUAGGCUUCGGUGGCGCGAUAGCGCCAACGUCCUCAACCUCCAAUGCAUCCCACCACAUGAUGAUGCCUGAAGAGCCUUGGUUUUUUG [C8G C20U C49U] sit within?
**Result** bin B

**Query** Which of the defined bands does the recorded polymerase ribozyme fitness (log ratio) of GACCAAUCUGCCCUCAGAGCUCGAGAACAUCUUCGGAUGCAGAGGAGGCAGGAUUCGGUGGCGCGAUAGCGCCAACGUCCUCAACCUUCAAUGCAUCCCACCACAGGAUGAUGCCUGAAGAGCCUUGGUUUUUUG [C53A C88U U106G] sit within?
**Result** bin B

**Query** Which of the defined bands does the recorded polymerase ribozyme fitness (log ratio) of GACCAAUCUGCCCUCAGAGCUCGAGAACACCUUCGGAUACAGAGGAGGCAGGCUUCUGUGGCGCGAUAUCGCCAACGUCCUCAACCUCCAAUGCAUCCCACCACAUGAUGAUGCCUGAAGAGCCUUGGUGUUUUG [U30C G39A G57U G69U U130G] sit within?
**Result** bin A
